# system tested: T1, CaBdf1 BD1 (GST-tagged, wild-type) (Candida albicans (strain SC5314 / ATCC …, UniProt Q5A4W8))
# T1 chain: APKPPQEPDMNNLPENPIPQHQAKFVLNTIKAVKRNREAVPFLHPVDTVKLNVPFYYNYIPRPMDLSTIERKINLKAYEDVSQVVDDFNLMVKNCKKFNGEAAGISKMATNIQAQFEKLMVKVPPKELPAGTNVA
# test details: histone peptide array (Active Motif MODified), 1 uM GST-tagged bromodomain, anti-GST detection, normalized mean intensity
Ends that are not written are not given here. me2a = not defined here
property name: binding score

In [3]: df
Out[3]:
                                     binder  meas_value
0  RKSAPATGGVKKPHRYRPG (R K S A P A T G G V Kme2 K P H R Y R P G) [H3 26-45]      0.0058
1  ARTKQTARKSTGGKAPRKQ (A Rme2s T Kme3 Q T A Rme2a Kme2 S T G G K A P R K Q)      0.0029
2  AR(me2a)TK(me2)QTAR(me2a)K(Me)STGGKAPRKQ (reading uncertain)     0.00363

// below: binding score requested for another binder
Problem: Reported binding score for SGRGKGGKGLGKGGAKRHR (S G Rme2s G K G G Kac G L G K G G A K R H R) [H4 1-19] : what is it?
Result: 0.0152
